# Target entity: SP3, recombinant (Gallus gallus (chicken), UniProt Q90WR8 1-771)
# Sequence (Q90WR8 whole entry): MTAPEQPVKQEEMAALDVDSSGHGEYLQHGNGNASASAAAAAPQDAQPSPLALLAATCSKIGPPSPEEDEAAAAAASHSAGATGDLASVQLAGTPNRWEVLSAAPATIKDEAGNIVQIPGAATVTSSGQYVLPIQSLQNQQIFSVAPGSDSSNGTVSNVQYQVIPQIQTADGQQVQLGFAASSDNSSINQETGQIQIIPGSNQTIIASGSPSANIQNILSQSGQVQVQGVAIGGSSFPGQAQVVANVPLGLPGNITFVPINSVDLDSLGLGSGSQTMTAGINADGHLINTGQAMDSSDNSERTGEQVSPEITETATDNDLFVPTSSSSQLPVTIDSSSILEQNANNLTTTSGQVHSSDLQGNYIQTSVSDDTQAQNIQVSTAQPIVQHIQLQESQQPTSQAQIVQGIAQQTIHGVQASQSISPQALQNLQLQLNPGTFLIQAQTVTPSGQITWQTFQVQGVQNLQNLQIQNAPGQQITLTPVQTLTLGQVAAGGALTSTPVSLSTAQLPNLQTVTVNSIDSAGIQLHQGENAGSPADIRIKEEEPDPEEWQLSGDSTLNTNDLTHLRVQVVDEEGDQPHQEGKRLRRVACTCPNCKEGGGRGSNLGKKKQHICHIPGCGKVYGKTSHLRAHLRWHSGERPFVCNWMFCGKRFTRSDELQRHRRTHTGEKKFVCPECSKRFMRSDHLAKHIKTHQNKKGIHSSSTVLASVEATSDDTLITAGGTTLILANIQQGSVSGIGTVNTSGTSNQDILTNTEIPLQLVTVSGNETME
# Procedure details: EMSA; EMSA buffer, salt, pH and temperature not given in the material; competitors at 50-fold molar excess
# Assay context: protein: recombinant; label: 32P (probe); blunt

{"Binder": "HS4 FIII wt (dsDNA) DNA 1: AGGCGCGCCCCGGTCCGGCGCTCCCCCCGCATCCCCGAGCCGGGGCGCGCCT DNA 2: AGGCGCGCCCCGGCTCGGGGATGCGGGGGGAGCGCCGGACCGGGGCGCGCCT", "binding result": "no binding"}
{"Binder": "HS4 FV wt (dsDNA) DNA 1: CCTGCAGACACCTGGGGGGATACGGGGAAAAAGCTTTAGG DNA 2: CCTAAAGCTTTTTCCCCGTATCCCCCCAGGTGTCTGCAGG", "binding result": "no binding"}
{"Binder": "HS4 FI wt (dsDNA) DNA 1: GGAGCTCACGGGGACAGCCCCCCCCCAAAGCCCCCAGGGA DNA 2: TCCCTGGGGGCTTTGGGGGGGGGCTGTCCCCGTGAGCTCC", "binding result": "binds"}
{"Binder": "glo wt (betaA-globin promoter, G16) (dsDNA) DNA 1: AATTGCAGAGCTGGGAATCGGGGGGGGGGGGGGGGCGGGTGGTGGTGTGG DNA 2: CCACACCACCACCCGCCCCCCCCCCCCCCCCGATTCCCAGCTCTGCAATT", "binding result": "binds"}
